- tested_on: T1, cynomolgus LAG-3 expressed on HEK 293F cells (cynomolgus)
- T1 construct: whole, on cells
- procedure_details: FACS, HEK 293F cynoLAG-3 cells
readout_name: EC50

[
  {
    "binder": "mAb744 (antibody, V domains shown, murine hybridoma anti-LAG-3 mAb; also called rnAb744) VH: QVQLQQSGAELVRPGTSVTLSCKASGYTFTDYEMHWMKQTPVHGLEWIGAIDPATGGTAYNQKFKGKAILTADKSSSTAYMDFRSLTSEDSAVYYCIRWGTTVFPYWGQGTLVTVS VL: DVVLTQTPLSLPVNIGDQASISCKSTKSLLNSDGFTYLDWYLQKPGQSPQLLIYLVSNRFSGVPDRFSGSGSGTDFTLKISRVEAEDLGVYYCFQSNYLPWTFGGGTKLEIK",
    "reported_result": "67 nM"
  }
]

Enquiry: Entry mAb746 (antibody, V domains shown, murine hybridoma anti-LAG-3 mAb; also called rnAb746; 3502-mAb746) VH: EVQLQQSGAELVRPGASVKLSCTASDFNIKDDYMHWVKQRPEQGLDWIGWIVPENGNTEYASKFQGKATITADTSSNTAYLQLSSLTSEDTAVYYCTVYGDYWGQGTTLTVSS VL: DIQMTQSPSSLSASLGERVSLNCRASQEISGYLSWLQQKSDGTIKRLIYAASTLDSGVPKRFSGSRSGSDYSLTISSLESEDFADYYCLQYASYPLTFGAGTKLELK has what EC50?
Return: 4.1 nM
